System: primary rat microglia
REPORTED CONDITIONS: rat
Structures can show the parent of a compound that is named as a salt.
METRIC NAME: Fibrin % cell toxicity (%)
Numbers only, in %.

Answered examples (4):
• OC(c1cc(C(F)(F)F)nc2c(C(F)(F)F)cccc12)C1CCCCN1 (centres unmarked) = 1
• CCOc1ccc(NC(=O)CC(C)O)cc1 (centres unmarked) = 0
• CC(C)NCC(O)c1ccc2ccccc2c1 (centres unmarked) [Pronetalol Hydrochloride] = 1
• CCOC(=O)OC(C)OC1=C(C(=O)Nc2ccccn2)N(C)S(=O)(=O)c2ccccc21 (centres unmarked) = 1

Q: Name the recorded Fibrin % cell toxicity of the compound listed here: "C[C@H](CCC(=O)O)[C@H]1CC[C@H]2[C@@H]3[C@H](O)C[C@@H]4C[C@H](O)CC[C@]4(C)[C@H]3C[C@H](O)[C@]12C"
A: 0

---

System: fibrin-induced microglia activation
PROTOCOL: Image-based assay of fibrin-induced microglia activation (HTS and dose response)
Format: cell-based, rat
REPORTED CONDITIONS: Rattus norvegicus, Microglia, primary microglia HTS, fibrin stimulation; increased cell size (>800 μm^2) as marker of activation; read-out: Fibrin % inhibition
Where a name gives a salt, the structure may show the parent alone.
I'd be grateful if you could share measured inhibition at 10 µM for these entries.
One number for each entry, in %.

Check out these entries, answers already filled in.
• CCCCC[C@H](O)/C=C/[C@H]1[C@H](O)CC(=O)[C@@H]1C/C=C\CCCC(=O)O = 102
• OCc1cccnc1 [Nicotinyl Alcohol Tartrate] = -5
• CN(C)CCCN1c2ccccc2Sc2ccccc21 = 46
• C/C(=C\C(=O)OCCCCCCCCC(=O)O)C[C@@H]1OC[C@H](C[C@@H]2O[C@H]2[C@@H](C)[C@H](C)O)[C@@H](O)[C@H]1O = 11
• CCCNC(C)(C)COC(=O)c1ccccc1 [Meprylcaine Hydrochloride] = -10

Next:
Q: Consider the compound CN1C(CCl)Nc2cc(Cl)c(S(N)(=O)=O)cc2S1(=O)=O (stereo not drawn) [Methyclothiazide] and give its recorded inhibition at 10 µM.
A: 25

---

Tested on: primary rat microglia
PROTOCOL: Cell toxicity (dead cells, size <150 μm2) in coated fibrin (cFib) assay;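 also: share of dead cells sized under 150 µm2 at 10 µM in fibrin-stimulated microglia HTS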
REPORTED CONDITIONS: primary microglia HTS, fibrin stimulation, toxicity = cell size <150 μm2
Structures can show the parent of a compound that is named as a salt.
METRIC NAME: Fibrin % cell toxicity (%)
Answers are plain numbers, in %.

Guide cases for Fibrin % cell toxicity, answers given:
- O=C(COc1ccc(Cl)cc1)N1CCN(Cc2ccc3c(c2)OCO3)CC1 [Fipexide Hydrochloride]: 0
- CCC(=O)O[C@@H](O[P@](=O)(CCCCc1ccccc1)CC(=O)N1C[C@H](C2CCCCC2)C[C@H]1C(=O)O)C(C)C: 1
- CC(C)CCCC(C)NC(C)C (centres unmarked): 1
- NS(=O)(=O)c1cc2c(cc1C(F)(F)F)NCNS2(=O)=O [Hydroflumethiazide]: 0
- CCC(NC(C)C)C(O)c1ccc(O)c(O)c1 (centres unmarked): 1

List Fibrin % cell toxicity for every entry below, keeping the order given.
1. CN1[C@@H](CC(=O)c2ccccc2)CCC[C@H]1C[C@H](O)c1ccccc1
2. Nc1nc(O)c2ncn(COC(CO)CO)c2n1

A:
1. 1
2. 0

For each of the items listed, what is its Fibrin % cell toxicity?
1. O=C1O[C@H](CO)[C@@H](O)[C@H](O)[C@H]1O
2. CO[C@@]1(NC(=O)C(C(=O)O)c2ccc(O)cc2)C(=O)N2C(C(=O)O)=C(CSc3nnnn3C)CO[C@@H]21 (some centres unmarked)
3. O=C(O)P(=O)(O)O
4. CN1CCc2cc3c(cc2C1O)OCO3 (centres unmarked) [Hydrastinine Hydrochloride]
5. CC[C@H]1CN2CC[C@H]1C[C@@H]2[C@@H](O)c1ccnc2ccc(OC)cc12 [Hydroquinidine]

A:
0
1
1
1
1

// for each molecule in input: emit Fibrin % cell toxicity
1. N=C(N)NC(=O)Cc1c(Cl)cccc1Cl
2. O[C@H]1[C@H](O)[C@@H](O)[C@H](O)[C@@H](O)[C@H]1O
3. C=C(C)[C@H]1CN[C@H](C(=O)O)[C@H]1CC(=O)O
4. CC(C(=O)O)c1cccc(Oc2ccccc2)c1 (centres unmarked)
5. C[C@H](O)C(=O)Nc1c(I)c(C(=O)NC(CO)CO)c(I)c(C(=O)NC(CO)CO)c1I

A:
1
0
0
0
1

---

System: primary rat microglia
PROTOCOL: Cell toxicity (dead cells, size <150 μm2) in coated fibrin (cFib) assay;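 also: share of dead cells sized under 150 µm2 at 10 µM in fibrin-stimulated microglia HTS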
REPORTED CONDITIONS: primary microglia HTS, fibrin stimulation; decreased size (<150 μm^2) as marker of toxicity
Structures can show the parent of a compound that is named as a salt. Where a SMILES comes first, the peptide text is derived from it. Bridges are numbered along the chain shown (N, C = ends). [ ]: non-standard residue; d: D form. The star is where a group is joined. Ileψ(thiazoline)Cys = CC[C@H](C)[C@H](N)C1=N[C@H](C(=O)*)CS1; dOrn = NCCC[C@@H](N)C(=O)O; X1 = CC[C@H](C)CCCCC(=O)*; Dab = NCC[C@H](N)C(=O)O
METRIC NAME: Fibrin % cell toxicity (%)
Answers are plain numbers, in %.

- CC(=O)O[C@]1(C(C)=O)CC[C@H]2[C@@H]3C[C@H](C)C4=CC(=O)CC[C@]4(C)[C@H]3CC[C@@]21C [Medroxyprogesterone acetate, reference compound]: 1
- NCCc1cc(O)c(O)cc1O [Oxidopamine Hydrochloride]: 0

Look up Fibrin % cell toxicity for the entries below, preserving their order.
1. CC[C@H](C)CCCCC(=O)N[C@@H](CCN)C(=O)N[C@H](C(=O)N[C@@H](CCN)C(=O)N[C@H]1CCNC(=O)[C@H]([C@@H](C)O)NC(=O)[C@H](CCN)NC(=O)[C@H](CCN)NC(=O)[C@H](CC(C)C)NC(=O)[C@@H](Cc2ccccc2)NC(=O)[C@H](CCN)NC1=O)[C@@H](C)O [Polymyxin B1] (X1-[Dab]T[Dab][Dab][Dab][dF]L[Dab][Dab]T; lactam 4-C)
2. O=C(CCNNC(=O)c1ccncc1)NCc1ccccc1 [Nialamide]
3. O=S(=O)(O)CCS
4. O=[N+]([O-])c1ccc([As](=O)(O)O)cc1
5. CC[C@H](C)[C@H](N)C1=N[C@H](C(=O)N[C@@H](CC(C)C)C(=O)N[C@H](CCC(=O)O)C(=O)N[C@H](C(=O)N[C@H]2CCCCNC(=O)[C@H](CC(N)=O)NC(=O)[C@@H](CC(=O)O)NC(=O)[C@H](Cc3cnc[nH]3)NC(=O)[C@@H](Cc3ccccc3)NC(=O)[C@H]([C@@H](C)CC)NC(=O)[C@@H](CCCN)NC2=O)[C@@H](C)CC)CS1 [Bacitracin, reference compound] ({Ileψ(thiazoline)Cys}-L[dE]IK[dOrn]I[dF]H[dD]N; lactam 4-C)
6. Cc1cccc(C)c1NC(=O)C1CCCCN1C (stereo not drawn) [Mepivacaine]
7. C=C1c2cccc(O)c2C(=O)C2=C(O)[C@]3(O)C(=O)C(C(N)=O)=C(O)[C@@H](N(C)C)[C@@H]3[C@@H](O)[C@H]12

A:
1. 1
2. 1
3. 1
4. 1
5. 1
6. 0
7. 0

# return Fibrin % cell toxicity for each item in the list
1. CCCCC(CC)CNC(=N)NC(=N)NCCCCCCNC(=N)NC(=N)NCC(CC)CCCC (stereo not drawn) [Alexidine Hydrochloride]
2. COc1ccc(OC)c(C(O)C(C)N)c1 (stereo not drawn)
3. C[C@@H]1C[C@H]2[C@@H]3CCC4=CC(=O)C=C[C@]4(C)[C@@]3(F)[C@@H](O)C[C@]2(C)[C@H]1C(=O)CO [Desoxymetasone]
4. CC(=O)/N=c1/sc(S(N)(=O)=O)nn1C [Methazolamide]
5. COP(=O)(OC)C(O)C(Cl)(Cl)Cl (stereo not drawn) [Metrifonate]
6. CC(=O)N[C@H]1[C@H]([C@H](O)[C@H](O)CO)OC(O)(C(=O)O)C[C@@H]1O (stereo partly drawn)

A:
1. 5
2. 1
3. 3
4. 1
5. 0
6. 1

---

Give inhibition at 10 µM for every item shown.
Tested on: LPS-induced microglia activation
PROTOCOL: Image-based assay of LPS-induced microglia activation (HTS and dose response)
Assay type: cell-based, rat
REPORTED CONDITIONS: Rattus norvegicus, Microglia, 48 h, primary microglia HTS, LPS stimulation; increased cell size (>800 μm^2) as marker of activation; read-out: LPS % inhibition
Structures can show the parent of a compound that is named as a salt.
Answers are plain numbers, in %.

# example entries with known answers
- COc1c(N2C[C@@H]3CCCN[C@@H]3C2)c(F)cc2c(=O)c(C(=O)O)cn(C3CC3)c12 [Moxifloxacin Hydrochloride]: 14
- CC(NCCc1ccc(O)cc1)C(O)c1ccc(O)cc1 (stereo not drawn) [Ritodrine hydrochloride, reference compound]: 36
- CCN(CC)CCNc1ccc(CO)c2sc3ccccc3c(=O)c12 [Hycanthone, reference compound]: 71

Batch request: inhibition at 10 µM for each of the following compounds.
1. O=C(OOC(=O)c1ccccc1)c1ccccc1 [Benzoyl peroxide, reference compound]
2. Cc1cc2c(OCC(CNC(C)(C)C)OC(=O)c3ccccc3)cccc2[nH]1 (stereo not drawn)
3. CC(=O)OCC(=O)[C@H]1CC[C@H]2[C@@H]3CCC4=CC(=O)CC[C@]4(C)[C@H]3CC[C@]12C [Desoxycorticosterone acetate, reference compound]

A:
1: 82; 2: 81; 3: 47
